Target: T1, cynomolgus TREM2-Fc (cynomolgus monkey, UniProt A0A2K5UY34 49-204)
T1 construct: also called cyno TREM2; not shown: Fc part
T1 sequence: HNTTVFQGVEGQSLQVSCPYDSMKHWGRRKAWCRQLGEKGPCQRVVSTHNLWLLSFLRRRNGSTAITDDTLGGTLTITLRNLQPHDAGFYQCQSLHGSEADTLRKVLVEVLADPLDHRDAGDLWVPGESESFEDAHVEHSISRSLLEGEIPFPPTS
Assay: SPR (Biacore T200), 37 C; TREM2-Fc on protein A chip, soluble Fab
koff values by entry
Answer with a number only, understood to be in s⁻¹.

Some entries whose results are on file:
3.10C2 Fab (Fab, V domains shown, also called 3.10C2 (3.10C2); Rat3.10C2) VH: EVQLVETGGSLVQPGKSLKLTCATSGFPFSNVWMHWVRQSPEKQLEWIAHIKAKSDNYATYYAESVKGRFTISRDDSKTSIYLQMNSLKEDDTAIYYCTGLDYWGQGVMVTVSS VL: DTVLTQAPLSLSVTPGESASISCRSSKSLLGVRDITSLYWYLQKPGKSPQLLIYRMSNLASGVPDRFSGSGSETDFTLKISEVETEDVGVYYCAQFLRYPYTFGPGTKLELK    0.0002
hPara.09.v2 Fab (Fab, V domains shown, also called Para.09-H5/3.27H7-L6) VH: EVQLVESGGGLVQPGGSLKLSCATSGFPFSNVWLHWVRQASGKGPEWVAHIKAKSDNYATYYAESVKGRFTISRDDSKNTVYLQMNSLKTEDTAVYYCTDILEYWGQGTLVTVSS VL: DVVMTQSPLSLPVTPGEPASISCRSSRSLLTSKGITSLYWYLQKPGQSPQLLIYRMSNLASGIPDRFSGSGSGTDFTLKISRVEAEDVGVYYCAQFLVYPYTFGQGTKVEIK    6.3e-05

Record h3.10C2.v1 Fab (Fab, V domains shown, also called 3.10C2-H1/3.27H7-L6) VH: EVQLVESGGGLVQPGGSLKLSCATSGFPFSNVWMHWVRQASGKGLEWIAHIKAKSDNYATYYAESVKGRFTISRDDSKTTIYLQMNSLKTEDTAVYYCTGLDYWGQGTTVTVSS VL: DVVMTQSPLSLPVTPGEPASISCRSSRSLLTSKGITSLYWYLQKPGQSPQLLIYRMSNLASGVPDRFSGSGSGTDFTLKISRVEAEDVGVYYCAQFLVYPYTFGQGTKVEIK , field koff: 0.00062

Noted for Para.09 Fab with the 3.27H7 light chain (Fab, V domains shown, Fab fragment; also called Para.09 (3.27H7); Para.09-L27H7) VH: EVQLVETGGSLVQPGKSLRLTCATSGFPFSNVWLHWVRQSPEKHPEWVAHIKAKSDNYATYYAESVKGRFTISRDDSKSSVFLQMNSLKEEDTAIYYCTDILEYWGQGTLVTVSS VL: DVVLTQAPLSVSVTPGESASISCRSSRSLLTSKGITSLYWYLQKPGMSPHLLIYRMSNLASGIPDRFSGSGSETDFTLKISEVEPEDVGVYYCAQFLVYPYTFGAGTKLELK : its koff reads 4.1e-05

Data origin, for the record: patent US20220389097A1
